Molecular target: Cannabinoid receptor 1 (Homo sapiens, UniProt P21554)
Sequence (P21554 whole entry): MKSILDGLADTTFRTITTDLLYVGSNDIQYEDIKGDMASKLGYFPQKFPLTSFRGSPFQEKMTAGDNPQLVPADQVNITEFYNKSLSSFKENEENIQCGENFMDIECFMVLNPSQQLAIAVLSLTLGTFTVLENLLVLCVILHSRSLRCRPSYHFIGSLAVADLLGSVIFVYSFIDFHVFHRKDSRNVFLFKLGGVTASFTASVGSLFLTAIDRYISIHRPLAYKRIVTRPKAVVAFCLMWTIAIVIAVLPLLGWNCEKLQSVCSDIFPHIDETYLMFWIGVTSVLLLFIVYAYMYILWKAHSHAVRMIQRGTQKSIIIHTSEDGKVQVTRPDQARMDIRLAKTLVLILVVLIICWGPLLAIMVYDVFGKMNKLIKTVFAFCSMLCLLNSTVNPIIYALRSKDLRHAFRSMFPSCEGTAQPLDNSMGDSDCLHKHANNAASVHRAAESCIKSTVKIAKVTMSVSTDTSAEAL
Assay: Displacement of [3H]-CP55940 from human CB1 receptor expressed in CHO-K1 cells by liquid scintillation counting
Conditions: read-out: EC50 (the source's name)
pIC50: −log10 of the molar value.

[
  {
    "molecule": "O=C(NC1(c2ccccn2)CCC1)C1=NN(c2c[n+]([O-])ccn2)C2C1C[C@@H]1C[C@H]21 (stereo partly drawn)",
    "pIC50": "< 4.30"
  },
  {
    "molecule": "CC(C)(C)c1cn(C[C@H]2CCCO2)/c(=N/C(=O)c2cc(C(F)(F)F)ccc2OCc2ccccn2)s1",
    "pIC50": "< 4.57"
  },
  {
    "molecule": "Cn1c(C2(C)CC2)c/c(=N\\C(=O)c2cc(C(F)(F)F)ccc2OCC(C)(C)O)n1C[C@H]1CCCO1",
    "pIC50": "< 4.57"
  }
]

---

Target: Cannabinoid receptor 1 (Mus musculus, UniProt P47746)
Sequence (P47746 whole entry): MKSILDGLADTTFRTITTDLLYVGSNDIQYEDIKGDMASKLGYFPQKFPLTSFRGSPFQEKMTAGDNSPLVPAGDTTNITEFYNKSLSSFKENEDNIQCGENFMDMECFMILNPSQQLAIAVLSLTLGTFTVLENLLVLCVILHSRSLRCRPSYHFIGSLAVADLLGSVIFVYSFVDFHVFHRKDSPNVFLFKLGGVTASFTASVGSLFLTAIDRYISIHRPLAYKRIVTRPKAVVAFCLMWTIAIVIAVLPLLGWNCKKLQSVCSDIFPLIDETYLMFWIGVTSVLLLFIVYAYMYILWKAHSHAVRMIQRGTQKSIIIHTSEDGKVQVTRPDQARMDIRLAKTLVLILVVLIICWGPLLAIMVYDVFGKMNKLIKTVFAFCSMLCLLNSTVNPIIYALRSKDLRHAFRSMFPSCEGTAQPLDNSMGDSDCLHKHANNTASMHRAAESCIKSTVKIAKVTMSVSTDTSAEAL
Assay: Agonist activity at CB1 receptor in Swiss Webster mouse vas deferens assessed as inhibition of electrically-stimulated muscle contraction

[
  {
    "compound.string": "CN(C)CCNc1cnn(C2CC(C)(C)CC(C)(C)C2)c(=O)c1Br",
    "EC50": "820 nM"
  }
]

---

Molecular target: UniProt P21554
Assay: Agonist activity at human CB1 receptor transfected in CHO-K1 cells assessed as cAMP change
Assay type: functional, cell-based

[
  {
    "compound": "CCC(C)Cn1c(C(C)(C)C)nc2cc(S(=O)(=O)c3ccnc(F)c3)ccc21 (stereo unspecified)",
    "EC50": "> 10 µM"
  }
]

---

Target: Cannabinoid receptor 1 (Homo sapiens, UniProt P21554)
Assay: Displacement of [3H]-CP55940 from human CB1 receptor transfected in CHO cells after 30 mins by liquid scintillation spectrometry
Format: cell-based
measured.parameter: Ki (nM)

[
  {
    "compound.string": "CC1=CC[C@@H]2[C@@H](C1)c1c(OC(=O)CCCN3CCOCC3)cc(C(C)(C)CCCCC#N)cc1OC2(C)C",
    "measured.parameter": "Ki",
    "display.unit": "nM",
    "recorded.number": 4
  }
]

---

Molecular target: Cannabinoid receptor 2 (Rattus norvegicus, UniProt Q9QZN9)
Sequence (Q9QZN9 whole entry): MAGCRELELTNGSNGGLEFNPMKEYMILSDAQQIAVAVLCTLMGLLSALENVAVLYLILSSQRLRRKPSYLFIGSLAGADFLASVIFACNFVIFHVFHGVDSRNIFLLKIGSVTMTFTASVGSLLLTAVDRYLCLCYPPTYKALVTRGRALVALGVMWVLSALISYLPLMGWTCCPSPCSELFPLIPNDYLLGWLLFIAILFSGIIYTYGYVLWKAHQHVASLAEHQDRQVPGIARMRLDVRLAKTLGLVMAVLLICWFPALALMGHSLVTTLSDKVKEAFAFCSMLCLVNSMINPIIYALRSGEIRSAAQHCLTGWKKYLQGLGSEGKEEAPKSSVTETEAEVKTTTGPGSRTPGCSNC
Experiment: Displacement of [3H]-CP55940 from rat CB2 receptor expressed in CHO-K1 cells by liquid scintillation spectrophotometry
Type: cell-based
pKi: −log10 of the molar value.
measured.parameter: pKi

[
  {
    "molecule": "CC1(Cc2ccccc2)COc2cc(C(=O)N3CCCCC3)ccc21 (configuration not stated)",
    "assayed.system": "Cannabinoid receptor 2 (Rattus norvegicus, UniProt Q9QZN9)",
    "measured.parameter": "pKi",
    "recorded.number": 6.62
  },
  {
    "molecule": "Cc1c2n(c(=O)c3cc(OC(=O)C(C)(C)C)cc(OC(=O)C(C)(C)C)c13)CCCC2",
    "assayed.system": "Cannabinoid receptor 2 (Rattus norvegicus, UniProt Q9QZN9)",
    "measured.parameter": "pKi",
    "recorded.number": 8.62
  }
]

---

Biological target: Cannabinoid receptor 2 (Homo sapiens, UniProt P34972)
Sequence (P34972 whole entry): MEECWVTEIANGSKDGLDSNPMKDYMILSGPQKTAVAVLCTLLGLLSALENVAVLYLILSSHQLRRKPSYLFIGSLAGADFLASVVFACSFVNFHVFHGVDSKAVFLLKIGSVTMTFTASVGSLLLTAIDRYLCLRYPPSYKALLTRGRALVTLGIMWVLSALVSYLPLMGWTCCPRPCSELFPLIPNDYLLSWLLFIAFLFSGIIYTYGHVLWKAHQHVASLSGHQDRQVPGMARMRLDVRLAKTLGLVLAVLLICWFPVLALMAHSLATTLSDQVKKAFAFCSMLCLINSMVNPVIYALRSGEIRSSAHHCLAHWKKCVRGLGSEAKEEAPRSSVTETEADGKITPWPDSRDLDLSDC
Assay: Agonist activity at human CB2 receptor
pKi: −log10 of the molar value.

[
  {
    "compound.string": "COc1ccc2c(c1)c(CCN1CCOCC1)c(C)n2C(=O)c1cccc(Cl)c1Cl",
    "pKi": 8.42
  }
]
